- assayedTarget: recombinant Calcineurin (CaN) (Homo sapiens, UniProt P63098+Q08209)
- Sequence (P63098 whole entry, other chains not shown): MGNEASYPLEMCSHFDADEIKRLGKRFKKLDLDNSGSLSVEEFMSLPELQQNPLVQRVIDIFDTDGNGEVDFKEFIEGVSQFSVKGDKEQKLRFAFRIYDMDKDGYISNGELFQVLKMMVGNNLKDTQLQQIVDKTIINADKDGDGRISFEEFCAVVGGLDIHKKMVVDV
- testDetails: Calcineurin phosphatase inhibition assay without cyclophilin A
- Assay type: biochemical
- runConditions: without cyclophilin A, RII phosphopeptide substrate; read-out: Calcineurin Inhibition (IC50, nM) −CypA
Answer each item with its documented IC50.

CC[C@@H]1NC(=O)[C@H]([C@H](O)[C@H](C)C/C=C/c2ccc3ccccc3c2)N(C)C(=O)[C@H](C(C)C)N(C)C(=O)[C@H](CC(C)C)N(C)C(=O)[C@H](CC(C)C)N(C)C(=O)[C@@H](C)NC(=O)[C@H](C)NC(=O)[C@H](CC(C)C)N(C)C(=O)[C@H](C(C)C)NC(=O)[C@H](CC(C)C)N(C)C(=O)C(OCCN(C)C)N(C)C1=O (stereo partly shown)	> 10000 nM

Dear reader, for each entry below, please note its IC50.
1. CC[C@@H]1NC(=O)[C@H]([C@H](O)[C@H](C)C/C=C/c2cccs2)N(C)C(=O)[C@H](C(C)C)N(C)C(=O)[C@H](CC(C)C)N(C)C(=O)[C@H](CC(C)C)N(C)C(=O)[C@@H](C)NC(=O)[C@H](C)NC(=O)[C@H](CC(C)C)N(C)C(=O)[C@H](C(C)C)NC(=O)[C@H](CC(C)C)N(C)C(=O)C(OCCN(C)C)N(C)C1=O (stereo partly shown)
2. CC[C@@H]1NC(=O)[C@H]([C@H](O)[C@H](C)C/C=C/c2ccc(C(F)(F)F)cc2)N(C)C(=O)[C@H](C(C)C)N(C)C(=O)[C@H](CC(C)C)N(C)C(=O)[C@H](CC(C)C)N(C)C(=O)[C@@H](C)NC(=O)[C@H](C)NC(=O)[C@H](CC(C)C)N(C)C(=O)[C@H](C(C)C)NC(=O)[C@H](CC(C)C)N(C)C(=O)C(OCCN(C)C)N(C)C1=O (stereo partly shown)
3. CC[C@@H]1NC(=O)[C@H]([C@H](O)[C@H](C)C/C=C/c2ccc(OC)cc2)N(C)C(=O)[C@H](C(C)C)N(C)C(=O)[C@H](CC(C)C)N(C)C(=O)[C@H](CC(C)C)N(C)C(=O)[C@@H](C)NC(=O)[C@H](C)NC(=O)[C@H](CC(C)C)N(C)C(=O)[C@H](C(C)C)NC(=O)[C@H](CC(C)C)N(C)C(=O)C(OCCN(C)C)N(C)C1=O (stereo partly shown)

Result ::
1: 1160 nM; 2: > 10000 nM; 3: 2660 nM

---

- assayedTarget: Human CypD (Homo sapiens)
- Sequence (P30405 30-207): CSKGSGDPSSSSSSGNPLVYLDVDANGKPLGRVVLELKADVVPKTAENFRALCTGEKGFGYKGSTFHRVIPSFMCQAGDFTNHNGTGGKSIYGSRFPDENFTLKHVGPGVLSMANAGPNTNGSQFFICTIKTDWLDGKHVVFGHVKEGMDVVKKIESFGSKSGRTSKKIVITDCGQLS
- testDetails: Cyclophilin peptidyl-prolyl isomerase functional assay (PPIase), cyclophilin D
- Assay type: biochemical
- runConditions: human recombinant enzyme, 10° C.; read-out: Inhibition (Ki, nM) Human CypD
measureName: Ki (nM)
Give bare numbers, in nM.

CC[C@@H]1NC(=O)[C@H]([C@H](O)[C@H](C)C/C=C/c2ccc(C(F)(F)F)cc2)N(C)C(=O)[C@H](C(C)C)N(C)C(=O)[C@H](CC(C)C)N(C)C(=O)[C@H](CC(C)C)N(C)C(=O)[C@@H](C)NC(=O)[C@H](C)NC(=O)[C@H](CC(C)C)N(C)C(=O)[C@H](C(C)C)NC(=O)[C@H](CC(C)C)N(C)C(=O)C(OCCN(C)C)N(C)C1=O (stereo partly shown)	9.4

Please supply Ki for each of the following items, keeping them in order.
1. CC[C@@H]1NC(=O)[C@H]([C@H](O)[C@H](C)C/C=C/c2cccs2)N(C)C(=O)[C@H](C(C)C)N(C)C(=O)[C@H](CC(C)C)N(C)C(=O)[C@H](CC(C)C)N(C)C(=O)[C@@H](C)NC(=O)[C@H](C)NC(=O)[C@H](CC(C)C)N(C)C(=O)[C@H](C(C)C)NC(=O)[C@H](CC(C)C)N(C)C(=O)C(OCCN(C)C)N(C)C1=O (stereo partly shown)
2. CC[C@@H]1NC(=O)[C@H]([C@H](O)[C@H](C)C/C=C/c2ccc3ccccc3c2)N(C)C(=O)[C@H](C(C)C)N(C)C(=O)[C@H](CC(C)C)N(C)C(=O)[C@H](CC(C)C)N(C)C(=O)[C@@H](C)NC(=O)[C@H](C)NC(=O)[C@H](CC(C)C)N(C)C(=O)[C@H](C(C)C)NC(=O)[C@H](CC(C)C)N(C)C(=O)C(OCCN(C)C)N(C)C1=O (stereo partly shown)
3. CC[C@@H]1NC(=O)[C@H]([C@H](O)[C@H](C)C/C=C/c2ccc(OC)cc2)N(C)C(=O)[C@H](C(C)C)N(C)C(=O)[C@H](CC(C)C)N(C)C(=O)[C@H](CC(C)C)N(C)C(=O)[C@@H](C)NC(=O)[C@H](C)NC(=O)[C@H](CC(C)C)N(C)C(=O)[C@H](C(C)C)NC(=O)[C@H](CC(C)C)N(C)C(=O)C(OCCN(C)C)N(C)C1=O (stereo partly shown)

Result ::
1. 11
2. 6.5
3. 8.4
